Listed here are molecules together with their documented IC50.
target: Opioid receptors; mu/kappa/delta; assay: In vitro opioid inhibitory activity against in guinea pig ileum; type: functional, tissue-based, Cavia porcellus
Where a SMILES comes first, the peptide text is derived from it. [ ]: non-standard residue; d: D form.
State just the number; it will be interpreted in nM.

// solved cases for IC50 follow
CSCC[C@@H](NC(=O)[C@@H](N)Cc1ccc(O)cc1)C(=O)N[C@@H](Cc1ccccc1)C(=O)NCC(N)=O (H-Y[dM]FG-NH2) | 97.6
CC(NC(=O)CNC(=O)[C@H](Cc1ccccc1)NC(=O)[C@@H](CC[S+](C)[O-])NC(=O)[C@@H](N)Cc1ccc(O)cc1)c1ccccc1 (stereo not given in full) | 72.1
C[S+]([O-])CC[C@@H](NC(=O)[C@@H](N)Cc1ccc(O)cc1)C(=O)N[C@@H](Cc1ccccc1)C(=O)NCC(=O)NCc1ccccc1 (stereo not given in full) | 21

What measured IC50 goes with CN(CC(=O)NC12CC3CC(CC(C3)C1)C2)C(=O)[C@H](Cc1ccccc1)NC(=O)[C@@H](CC[S+](C)[O-])NC(=O)[C@@H](N)Cc1ccc(O)cc1 (stereo not given in full) ?
25.5

What measured IC50 goes with C[S+]([O-])CC[C@@H](NC(=O)[C@@H](N)Cc1ccc(O)cc1)C(=O)N[C@@H](Cc1ccccc1)C(=O)NCC(=O)NC12CC3CC(CC(C3)C1)C2 (stereo not given in full) ?
22
